Where do these numbers come from? They come from patent US12263248B2.

# assay.explanation: Particle size and polydispersity index of nanoparticle compositions (Zetasizer Nano ZS)
# Type: physicochemical
# details: Table 1A; lipid:DSPC:cholesterol:PEG-DMG 50:10:38.5:1.5 mol %
Classify: class 1 when Size (nm) is strictly less than 90 nm; class 0 when Size (nm) is not.

# example entries with known answers
{"compound": "CCCCCCCCCOC(=O)CCCCCCCN(CCO)CCCCCCCC(=O)OC(COCCCCCC)COCCCCCC", "group": "class 0"}
{"compound": "CCCCCCCCCOC(=O)CCCCCCCN(CCO)CCCCCCCOC(=O)C(CCCCCCCC)CCCCCCCC", "group": "class 1"}
{"compound": "CCCCCCCCCOC(=O)CCCCCCCN(CCCCCCCC(=O)OC(CCCCCCCC)CCCCCCCC)CCCC(F)(F)F", "group": "class 1"}
{"compound": "CCCCCCCCCC(=O)OCCCCCCCN(CCO)CCCCCCCOC(=O)C(CCCCCCCC)CCCCCCCC", "group": "class 0"}

Q: Just wondering, is Size (nm) of CCCCCCCCCOC(=O)CCCCCCCN(CCO)CCCCCCCC(=O)OC(CCCCCC)CCCCCCCC (stereo not shown) below 90 nm?
A: class 0

---

Examples of molecules with documented % remaining dose in liver, 48 h follow.
# assay.explanation: Residual lipid levels in rat liver and spleen (UPLC-MS)
# Type: in vivo
# details: rats, intravenous, 2.0 mpk, 48 h
Reply numerically in %, unit not repeated.

Use the examples below as a reference point.
{"molecule": "CCCCC/C=C\\C/C=C\\CCCCCCCCC(CCCCCCCC/C=C\\C/C=C\\CCCCC)OC(=O)CCCN(C)C [MC3, DLin-MC3-DMA, reference compound]", "unit.abbrev": "%", "% remaining dose in liver, 48 h": 74}
{"molecule": "CCCCCCCCCCCOC(=O)CCCCCN(CCO)CCCCCCCC(=O)OC(CCCCCCCC)CCCCCCCC [Compound 25]", "unit.abbrev": "%", "% remaining dose in liver, 48 h": 1.3}

Now let's try a different one.
Q: GET /values?readout=% remaining dose in liver, 48 h&item= CCCCCCCCCN(CCO)CCCCCCCC(=O)OC(CCCCCCCC)CCCCCCCC [Compound 3]
A: 14.2

---

# Test system: IL-6, IP-10
# assay.explanation: Cytokine induction in mice upon intravenous administration
# Format: in vivo
# Parameters: unit not given here
# details: intravenous, 0.5 mpk, 6 hours
recorded.metric: Cytokine induction IL-6

Use the examples below as a reference point.
{"molecule": "CCCCCCCCC(CCCCCCCC)OC(=O)CCCCCCCN(CCO)CCCCCCCC", "measured.on": "IL-6, IP-10", "Cytokine induction IL-6": 13.1375}
{"molecule": "CCCCC/C=C\\C/C=C\\CCCCCCCCN(CCO)CCCCCCCC(=O)OCCCCCCCCC", "measured.on": "IL-6, IP-10", "Cytokine induction IL-6": 28.69}

Q: GET /values?readout=Cytokine induction IL-6&item= CCCCCCCCCOC(=O)CCCCCCCN(CCO)CCCCCCCC(=O)N(CCCCCCCC)CCCCCCCC
A: 319.46

Q: GET /values?readout=Cytokine induction IL-6&item= CCCCCCCCCOC(=O)CCCCCCCN(CCCCCCCC(=O)OC(CCCCCCCC)CCCCCCCC)CCOCCN(C)C
A: 138.43
